Property: Gal9 response compared to reference; scope: individual compounds
System: mCherry-GAL9 expressing HeLa cells
experimental.protocol: GAL9 recruitment assay, HeLa
Assay type: cell-based
condition.parameters: EEE 10 µM, calculated mean from >3 independent exp.
Give the figure by itself; no unit, no explanation.

These recorded examples may help you get a feel for the data.
CCN1CCC(n2cc(Nc3ncc(F)c(-n4ccc5c(C#N)cccc54)n3)c(OC)n2)CC1 :: 0.370
CCOc1nn(C2CCN(C)CC2)cc1Nc1ncc(F)c(-n2ccc3c(C#N)cccc32)n1 :: 0.023
COc1nn(C2CCN(C(C)C)CC2)cc1Nc1ncc(F)c(-n2ccc3c(C#N)cccc32)n1 :: 0.495
COc1nn(C2CCNCC2)cc1Nc1ncc(F)c(-n2ccc3c(C#N)cccc32)n1 :: 0.058
COc1nn(C2CCNCC2)cc1Nc1ncc(C(F)(F)F)c(-c2c[nH]c3ccccc23)n1 :: 0.207
CCCN1CCC(n2cc(Nc3ncc(F)c(-n4ccc5c(C#N)cccc54)n3)c(OC)n2)CC1 :: 0.588

Input line: Any idea what Gal9 response compared to reference was measured for `COc1nn(C2CCN(CCCO)CC2)cc1Nc1ncc(F)c(-n2ccc3c(C#N)cccc32)n1` ?
Output line: 0.118

Input line: Would you kindly repeat that for `COc1nn(C2CCN(C)CC2)cc1Nc1ncc(F)c(-n2ccc3c(C#N)cccc32)n1` ?
Output line: 0.198
